conditions.used: 313.15 K; 101 kPa; Liquid; Oscillating disk viscometry
reported.property: viscosity (mPa·s)

> print(dat)
                           molecule  reported.property    uom  data.value
1  CN1CCCC1=O [N-methylpyrrolidone]          viscosity  mPa·s       1.332

I. C1=CCCCC1 [cyclohexene]
II. OC1CCCCC1 [cyclohexanol]
III. NC1CCCCC1 [cyclohexylamine]
Please put the entries in order of rising viscosity. Answer by writing out the labels in the requested order. I, III, II
(I: 0.516 mPa·s, III: 1.617 mPa·s, II: 16.66 mPa·s)

----------
conditions.used: 313.15 K; 101 kPa; Liquid; Vibrating tube method
reported.property: mass density (kg/m3)

> print(dat)
                           compound  reported.property  data.value
1  CN1CCCC1=O [N-methylpyrrolidone]       mass density     1014.82
2          OC1CCCCC1 [cyclohexanol]       mass density      933.48
3       NC1CCCCC1 [cyclohexylamine]       mass density      848.61
4           C1=CCCCC1 [cyclohexene]       mass density      792.61

----------
conditions.used: 318.15 K; 101 kPa; Liquid; Vibrating tube method
reported.property: mass density (kg/m3)

> print(dat)
                           compound  reported.property    uom  data.value
1  CN1CCCC1=O [N-methylpyrrolidone]       mass density  kg/m3     1010.06
2          OC1CCCCC1 [cyclohexanol]       mass density  kg/m3      928.11
3       NC1CCCCC1 [cyclohexylamine]       mass density  kg/m3      844.07
4           C1=CCCCC1 [cyclohexene]       mass density  kg/m3      788.02

----------
conditions.used: 308.15 K; 101 kPa; Liquid; Vibrating tube method
reported.property: mass density (kg/m3)

> print(dat)
   molecular.string  reported.property  data.value
1         OC1CCCCC1       mass density      937.23
2        CN1CCCC1=O       mass density     1019.34
3         C1=CCCCC1       mass density      797.25
4         NC1CCCCC1       mass density      853.14

----------
conditions.used: 303.15 K; 101 kPa; Liquid; Oscillating disk viscometry
reported.property: viscosity (mPa·s)

> print(dat)
   molecular.string  data.value
1         NC1CCCCC1       1.797

P. C1=CCCCC1
Q. CN1CCCC1=O
R. OC1CCCCC1
hey, can you rank those compounds up there by viscosity? biggest number first please Answer by writing out the labels in the requested order. R, Q, P
(R: 41.07 mPa·s, Q: 1.511 mPa·s, P: 0.581 mPa·s)

----------
conditions.used: 308.15 K; 101 kPa; Liquid; Oscillating disk viscometry
reported.property: viscosity (mPa·s)

> print(dat)
                           compound  reported.property  data.value
1  CN1CCCC1=O [N-methylpyrrolidone]          viscosity       1.409

I. NC1CCCCC1 [cyclohexylamine]
II. C1=CCCCC1 [cyclohexene]
III. OC1CCCCC1 [cyclohexanol]
hey, can you rank those compounds up there by viscosity? biggest number first please Answer by writing out the labels in the requested order. III, I, II
(III: 27.95 mPa·s, I: 1.704 mPa·s, II: 0.549 mPa·s)
